Biological target: recombinant human IL-6 (human, UniProt P05231 30-212)
Sequence (P05231 30-212 limits assumed): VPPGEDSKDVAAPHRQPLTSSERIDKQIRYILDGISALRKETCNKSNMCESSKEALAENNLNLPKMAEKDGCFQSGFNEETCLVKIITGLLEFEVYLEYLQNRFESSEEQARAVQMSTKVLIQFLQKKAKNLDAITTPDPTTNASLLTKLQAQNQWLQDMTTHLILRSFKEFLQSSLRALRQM
Assay: SPR, IL-6 on CM5 chip, Fab lysate, 25 C
readoutKind: koff (s⁻¹)
Kindly provide the numeric value in s⁻¹ only, without the unit symbol.

Example binders with recorded koff:
binder	valueUnit	koff
anti-IL-6 Fab, light chain M50E (Fab, V domains shown, see m39) VH: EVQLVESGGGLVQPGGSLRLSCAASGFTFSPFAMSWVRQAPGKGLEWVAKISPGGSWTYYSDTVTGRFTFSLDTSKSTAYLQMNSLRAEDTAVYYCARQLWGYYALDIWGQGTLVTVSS VL: DIQLTQSPSSLSASVGDRVTITCSASISVSYMYWYQQKPGKAPKLLIYDESNLASGVPSRFSGSGSGTDFTLTISSLQPEDFATYYCMQWSGYPYTFGQGTKVEIK	s⁻¹	0.00476
anti-IL-6 Fab, light chain S51R (Fab, V domains shown, see m39) VH: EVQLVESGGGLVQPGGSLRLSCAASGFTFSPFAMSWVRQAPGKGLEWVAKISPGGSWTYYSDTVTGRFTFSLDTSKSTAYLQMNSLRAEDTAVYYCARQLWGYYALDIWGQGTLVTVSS VL: DIQLTQSPSSLSASVGDRVTITCSASISVSYMYWYQQKPGKAPKLLIYDMRNLASGVPSRFSGSGSGTDFTLTISSLQPEDFATYYCMQWSGYPYTFGQGTKVEIK	s⁻¹	0.00467

Please examine the following record next.
Qu. Any idea what koff was measured for anti-IL-6 Fab, light chain M50D (Fab, V domains shown, see m39) VH: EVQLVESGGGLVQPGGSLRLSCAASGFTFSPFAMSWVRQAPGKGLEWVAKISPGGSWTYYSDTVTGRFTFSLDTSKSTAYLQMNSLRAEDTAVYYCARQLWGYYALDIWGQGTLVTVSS VL: DIQLTQSPSSLSASVGDRVTITCSASISVSYMYWYQQKPGKAPKLLIYDDSNLASGVPSRFSGSGSGTDFTLTISSLQPEDFATYYCMQWSGYPYTFGQGTKVEIK ?
Ans. 0.00458

Sourced from patent US20240209076A1
